Attribute: pSTAT5 ratio YT CD25/YT, dilution factor 32, lower table
- tested.on: T1, human high affinity trimeric IL-2 receptor (CD25/CD122/CD132) (human, UniProt P01589 22-272; P14784 27-551; P31785 23-369)
- T1 sequence 1: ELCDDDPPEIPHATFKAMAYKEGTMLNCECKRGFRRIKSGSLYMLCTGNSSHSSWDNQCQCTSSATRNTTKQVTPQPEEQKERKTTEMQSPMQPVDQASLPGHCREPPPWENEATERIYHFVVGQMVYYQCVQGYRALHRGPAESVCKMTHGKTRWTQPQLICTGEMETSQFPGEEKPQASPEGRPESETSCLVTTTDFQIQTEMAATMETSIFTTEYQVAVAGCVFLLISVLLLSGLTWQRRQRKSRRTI
- T1 sequence 2: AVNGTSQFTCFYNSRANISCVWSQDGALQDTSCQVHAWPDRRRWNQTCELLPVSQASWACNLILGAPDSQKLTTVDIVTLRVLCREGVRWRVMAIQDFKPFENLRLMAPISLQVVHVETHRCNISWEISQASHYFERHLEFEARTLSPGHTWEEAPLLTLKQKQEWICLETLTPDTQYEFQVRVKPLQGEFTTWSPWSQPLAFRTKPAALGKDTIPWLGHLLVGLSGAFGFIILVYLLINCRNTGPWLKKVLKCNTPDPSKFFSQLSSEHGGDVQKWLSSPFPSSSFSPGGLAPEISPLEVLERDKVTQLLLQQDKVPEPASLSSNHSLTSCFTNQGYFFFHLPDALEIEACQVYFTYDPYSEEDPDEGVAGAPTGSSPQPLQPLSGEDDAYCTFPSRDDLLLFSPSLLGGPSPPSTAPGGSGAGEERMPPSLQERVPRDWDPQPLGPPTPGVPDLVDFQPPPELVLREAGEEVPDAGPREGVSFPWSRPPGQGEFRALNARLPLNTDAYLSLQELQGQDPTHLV
- T1 sequence 3: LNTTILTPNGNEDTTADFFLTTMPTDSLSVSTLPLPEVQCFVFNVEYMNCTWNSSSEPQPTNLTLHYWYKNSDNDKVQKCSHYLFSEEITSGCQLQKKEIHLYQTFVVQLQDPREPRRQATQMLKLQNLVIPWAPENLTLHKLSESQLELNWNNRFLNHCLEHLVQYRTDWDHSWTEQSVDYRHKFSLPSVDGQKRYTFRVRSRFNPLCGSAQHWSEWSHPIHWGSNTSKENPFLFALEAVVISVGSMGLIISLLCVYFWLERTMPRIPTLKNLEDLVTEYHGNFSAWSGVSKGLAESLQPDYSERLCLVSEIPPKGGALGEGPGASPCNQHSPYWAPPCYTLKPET
- test.details: cell-based or functional assay
observed.property: pSTAT5 ratio YT CD25/YT, dilution factor 32, lower table

binder="RHH (ligand) cytokine: APTSSSTKKTQLQLEHLRLDLHMILNGINNYKNPKLTRMLTFKFYMPKKATELKHLQCLEEELKPLEEVLNLAQSKNFHLRPRDLISNINVIVLELKGSETTFMCEYADETATIVEFLNRWITFCHSIISTLT" observed_result=6.3
binder="RFH (ligand) cytokine: APTSSSTKKTQLQLEHLRLDLFMILNGINNYKNPKLTRMLTFKFYMPKKATELKHLQCLEEELKPLEEVLNLAQSKNFHLRPRDLISNINVIVLELKGSETTFMCEYADETATIVEFLNRWITFCHSIISTLT" observed_result=4.3
